B1: library; numbered along this chain (parent)
chain: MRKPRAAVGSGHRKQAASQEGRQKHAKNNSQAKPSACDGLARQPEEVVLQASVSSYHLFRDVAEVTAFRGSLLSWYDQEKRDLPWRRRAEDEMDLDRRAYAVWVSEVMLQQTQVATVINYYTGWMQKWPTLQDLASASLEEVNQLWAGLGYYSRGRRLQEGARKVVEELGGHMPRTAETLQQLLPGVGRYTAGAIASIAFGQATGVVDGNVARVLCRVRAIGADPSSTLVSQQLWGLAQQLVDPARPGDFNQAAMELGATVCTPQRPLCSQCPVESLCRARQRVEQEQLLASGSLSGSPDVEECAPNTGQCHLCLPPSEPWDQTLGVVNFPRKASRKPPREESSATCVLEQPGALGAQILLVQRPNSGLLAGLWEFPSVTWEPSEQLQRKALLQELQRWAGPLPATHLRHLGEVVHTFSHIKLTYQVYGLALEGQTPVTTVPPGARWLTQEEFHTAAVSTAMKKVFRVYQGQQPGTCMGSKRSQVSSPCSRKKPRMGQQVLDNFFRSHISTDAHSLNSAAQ

Variants of: B1
Assay: 8OG:A repair function score (normalized; synonymous = 0, nonsense = -1) (normalized log-likelihood score); higher = more repair activity (WT-like);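 further: cells sorted at 72 h after reporter transfection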
Conditions: with 8OG:A DNA repair reporter (GFP) in HEK-293 MUTYH KO cells
measured-metric: 8OG:A repair function score
Give a plain numeric answer without units written out.

query: Kindly indicate its recorded 8OG:A repair function score. Item: `L355T`
result: 0.059
